testProtocol: Identification of proteins required for the processing of the EWS-FLI1 nascent transcript;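 note: robust z of luciferase light less the median z of siRNAs with the same seed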
conditionNotes: TC32 Ewing sarcoma NR0B1-luc vs CMV-luc, 48 h; screened at 20 nM (by protocol)
In all, about 59,000 sequences were measured (the read-out: median about -0.00055, lowest 2% from about -2 on). Shown is part of a subset that was picked to be rich in the lowest values.
# seed-corrected z-score per entry
measuredMetric: seed-corrected z-score

>>> df
                    biopolymersequence          measuredmetric  experimentalresult
0   UAAAGUAAAGAUGUCUUCC against NPIPA1  seed-corrected z-score              0.0914
1     UAUCAACUCAGUCCUCAGC against HPS6  seed-corrected z-score               0.543
2  UUAUAGUAUGCAGGAAUGG against FAM150B  seed-corrected z-score               -1.67
3     ACCGUUAAAACAAGCUUCG against NBAS  seed-corrected z-score              0.0519
4   UUGUAUUCAUCCUUGAAGC against CCDC89  seed-corrected z-score               -2.42
5    AUUGGAGAGAGGUUCAUUC against YWHAH  seed-corrected z-score              -0.058

###

testProtocol: Identification of proteins required for the processing of the EWS-FLI1 nascent transcript;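 note: robust z of luciferase light less the median z of siRNAs with the same seed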
conditionNotes: TC32 Ewing sarcoma NR0B1-luc vs CMV-luc (EWS-FLI1 target promoter against control promoter), 48 h; screened at 20 nM (by protocol)
The full ranking holds about 59,000 sequences; the median of the read-out is about -0.00055, and the lowest 2% start at about -2. The entries come from a sample that favours the lowest values as a whole.
measuredMetric: seed-corrected z-score

>>> print(df.to_string())
                       biopolymersequence          measuredmetric  experimentalresult
 0     UUCAGAUGUCCGUCUAUGC against ABLIM3  seed-corrected z-score               0.714
 1      UUGGUGUUGGGCAACUUGU against HOXB4  seed-corrected z-score               0.286
 2      UCCAGGUCUAGAACUUGCG against DACH1  seed-corrected z-score              -0.158
 3    AUAUUUCAUAUAGGCGAUG against PLA2G10  seed-corrected z-score              -0.215
 4   UCAUAGCAAAGGAUCAGCC against CDC42BPB  seed-corrected z-score               -3.29
 5      UUUUCGUGAUGCUUGGUCC against NDEL1  seed-corrected z-score                1.78
 6     UAUCUGAGAGUGAUCCUUC against LRRC47  seed-corrected z-score                1.55
 7      UUGCGGUAGACGAUGAUGC against ADAM8  seed-corrected z-score               -1.99
 8   UUUUCUGCCUGAUCUAACU against MAP3K7CL  seed-corrected z-score                0.11
 9        AGAUCAAUUAGUAAUCCUC against CHM  seed-corrected z-score              -0.298
10       UGCUUGCGAACAAACAGCC against SCD5  seed-corrected z-score               0.624
11     UUCCGGAACAUGAAGUGCC against DYRK1B  seed-corrected z-score              -0.257
12      UCAGGUAGCAGGGUAUUGG against LTA4H  seed-corrected z-score             -0.0663
13      AAGAUAGUCAAGCAUGUGC against ELMO3  seed-corrected z-score               0.733
14   UACCGGGAUACAUGCAUGC against KIAA1551  seed-corrected z-score               -2.73
15   UGAGUUUCUUCUCCGUUCU against C11orf97  seed-corrected z-score               -3.81
16     UUCCAGGUCACCAACCACC against IFITM5  seed-corrected z-score              -0.607
17      UAAUGUACAUCUCUCGUCC against CNGA1  seed-corrected z-score                -2.2
18      UUUAGAGGGACUCUUGUUU against HMGA2  seed-corrected z-score               -1.74
19  UUAUCUGUGAGAGCAAUUA against LOC728752  seed-corrected z-score               -1.23
20      UAGAUGUCUGGAGCCCAUC against LYPD6  seed-corrected z-score               -0.74
21     UCCUUAAUUUGAUAUUUGC against MAGEA8  seed-corrected z-score              -0.105
22      UAAAGGGAAAUUUCCACCA against CDH16  seed-corrected z-score               0.815
23      UUCCGGUACAAGAUAUUCC against QRSL1  seed-corrected z-score               0.059
24    UCCAUGACGAAGCUGUUCU against SUV39H1  seed-corrected z-score              0.0817
25      UAGGCUUAGAGGUCCCAGC against LACRT  seed-corrected z-score                2.39
